// Activity lookup, one value per entry
- system: NAD-dependent protein deacetylase sirtuin-1 (Homo sapiens) (UniProt Q96EB6)
- Sequence (whole entry): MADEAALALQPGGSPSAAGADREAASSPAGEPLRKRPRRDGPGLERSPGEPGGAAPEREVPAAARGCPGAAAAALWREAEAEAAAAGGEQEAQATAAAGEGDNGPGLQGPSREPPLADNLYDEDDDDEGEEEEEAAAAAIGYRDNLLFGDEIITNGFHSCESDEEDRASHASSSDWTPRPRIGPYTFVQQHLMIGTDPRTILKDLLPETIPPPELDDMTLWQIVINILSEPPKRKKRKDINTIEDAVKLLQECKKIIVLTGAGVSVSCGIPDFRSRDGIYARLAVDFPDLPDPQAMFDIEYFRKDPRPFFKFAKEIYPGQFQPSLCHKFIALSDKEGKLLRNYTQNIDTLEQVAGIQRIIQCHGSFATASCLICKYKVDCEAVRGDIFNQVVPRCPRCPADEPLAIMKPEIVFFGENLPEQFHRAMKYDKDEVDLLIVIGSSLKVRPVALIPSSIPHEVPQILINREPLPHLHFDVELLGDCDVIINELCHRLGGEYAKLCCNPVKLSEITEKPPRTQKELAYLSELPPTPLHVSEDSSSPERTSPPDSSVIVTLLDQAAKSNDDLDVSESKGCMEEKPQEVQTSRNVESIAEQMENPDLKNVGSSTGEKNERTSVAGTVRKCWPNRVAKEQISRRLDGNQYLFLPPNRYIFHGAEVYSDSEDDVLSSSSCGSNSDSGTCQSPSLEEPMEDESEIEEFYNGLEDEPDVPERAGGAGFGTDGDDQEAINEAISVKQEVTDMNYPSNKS
- procedureSummary: Activation of SIRT1 (unknown origin) expressed in bacterial expression system assessed as increase in enzyme activity at 100 uM using Fluorophore labeled-Arg-His-Lys-Lys (Ac) as substrate incubated for 30 mins in presence of NAD+ by fluorimetric method relative to control
Where a SMILES comes first, the peptide text is derived from it.
State just the number; it will be interpreted in %.

> print(dat)
                                   compound  outputunit  reportedresult
1  N=C(N)NCCC[C@H](NC(=O)[C@@H]1CCCN1C(=O)[C@@H](N)Cc1cnc[nH]1)C(=O)O (H-His-Pro-Arg-OH)           %             -10
2  CC(C)[C@H](NC(=O)[C@@H](N)Cc1cnc[nH]1)C(=O)N[C@@H](CCCNC(=N)N)C(=O)O (H-His-Val-Arg-OH)           %               5
3  N=C(N)NCCC[C@H](NC(=O)[C@H](Cc1ccc(O)cc1)NC(=O)[C@@H](N)CCC(N)=O)C(=O)O (H-Gln-Tyr-Arg-OH)           %              12
4  N[C@@H](Cc1cnc[nH]1)C(=O)N[C@@H](CCC(=O)O)C(=O)N[C@@H](Cc1ccc(O)cc1)C(=O)O (H-His-Glu-Tyr-OH)           %              15
5  N=C(N)NCCC[C@H](NC(=O)[C@H](Cc1ccc(O)cc1)NC(=O)[C@@H](N)Cc1cnc[nH]1)C(=O)O (H-His-Tyr-Arg-OH)           %              19

q: Under NAD-dependent protein deacetylase sirtuin-1 (Homo sapiens) (UniProt Q96EB6): report Activity of N=C(N)NCCC[C@H](NC(=O)[C@H](Cc1c[nH]c2ccccc12)NC(=O)[C@@H](N)CS)C(=O)O (H-Cys-Trp-Arg-OH) .
a: 97

q: Under NAD-dependent protein deacetylase sirtuin-1 (Homo sapiens) (UniProt Q96EB6): report Activity of CC(C)C[C@H](NC(=O)[C@@H](N)CC(N)=O)C(=O)N[C@@H](CCCNC(=N)N)C(=O)O (H-Asn-Leu-Arg-OH) .
a: 6
